Measured inhibition of aggregation accompanies every entry in the list below.
# assay-procedure: reduction of polyQ htt aggregates in cells – imaging, exon1htt(103Q)mCFP cells, high-content imaging, primary screen (AID 483);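 further: compound exposure lasted 3 days before fixation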
# condition-details: exon1htt(103Q)mCFP cell line, aggregate imaging, at 2 µM; active compounds read high
State just the number; it will be interpreted in %.

Bench note: what inhibition of aggregation did CCOc1ccc(NC(=O)CSc2nnnn2CC(=O)O)cc1 show? -19.1

Bench note: what inhibition of aggregation did OC(CCN1CCCCC1)(c1ccccc1)C1CCCCC1 (stereo not drawn) show? 11.9

Bench note: what inhibition of aggregation did O=C1c2ccccc2C(=O)N1OCc1ccccc1 show? 13.7

Bench note: what inhibition of aggregation did Cc1ccc(Nc2nc(CSc3nnnn3C)cs2)cc1 show? 3.7

Bench note: what inhibition of aggregation did CC(=O)NCC(=O)OC(C)C(=O)Nc1ccc(C(C)=O)cc1 (stereo not drawn) show? 6.4

Bench note: what inhibition of aggregation did Cc1nc(=S)n(-c2ccccc2)[nH]1 show? 16.1

Bench note: what inhibition of aggregation did O=C(O)c1ccc(-n2nnnc2Oc2ccccc2C(=O)N2CCOCC2)cc1 show? -2.2

Bench note: what inhibition of aggregation did CCOC(=O)c1sc2nc3c(cc2c1N)COC(C)(C)C3 show? 0.2

###

# tested-on: Voltage-gated potassium channel subunit beta-2 (Rattus norvegicus)
# assay-procedure: inhibitors of rat Kvbeta2 reductase activity – biochemical, NADPH fluorescence, primary screen (AID 622);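 further: slope of raw intensity against log time taken from 70 to 1610 s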
# condition-details: recombinant KvBeta, 4-cyanobenzaldehyde reduction, at 10 µM, active compounds read high
value-type: fluorescence slope
# print the numeric value only

Here are 4 compounds together with their reported answers.
[[record]]
compound = "O=C(C1CCN(S(=O)(=O)N2CCC3(CC2)OCCO3)CC1)N1CCOCC1"
tested_on = "Voltage-gated potassium channel subunit beta-2 (Rattus norvegicus)"
value_type = "fluorescence slope"
readout_number = -0.571

[[record]]
compound = "CCCCn1c(SCC(=O)c2ccc3c(c2)OCCO3)nnc1-c1ccco1"
tested_on = "Voltage-gated potassium channel subunit beta-2 (Rattus norvegicus)"
value_type = "fluorescence slope"
readout_number = -0.483

[[record]]
compound = "O=C(CCCCCn1c(SCc2ccncc2)nc2ccccc2c1=O)NCc1ccco1"
tested_on = "Voltage-gated potassium channel subunit beta-2 (Rattus norvegicus)"
value_type = "fluorescence slope"
readout_number = -0.498

[[record]]
compound = "Cc1ccc2cc(CN(CC(C)C)C(=O)C3CCCO3)c(=O)[nH]c2c1 (configuration not stated)"
tested_on = "Voltage-gated potassium channel subunit beta-2 (Rattus norvegicus)"
value_type = "fluorescence slope"
readout_number = -0.565


Bench note: what fluorescence slope did O=C(COc1ccc2c(c1)OCO2)NC12CC3CC(CC(C3)C1)C2 show? -0.411

Bench note: what fluorescence slope did COC(=O)c1cn(-c2ccccc2)nc1C(=O)OC show? -0.441

Bench note: what fluorescence slope did N#CCCn1cnc2ccccc21 show? -0.564

Bench note: what fluorescence slope did CCn1c(SCC(=O)Nc2nccs2)nnc1-c1ccncc1 show? -0.454

Bench note: what fluorescence slope did CC(=O)NCC(=O)OC(C)C(=O)Nc1ccc(C(C)=O)cc1 (configuration not stated) show? -0.591

Bench note: what fluorescence slope did CCOc1ccc(N(C)S(=O)(=O)c2ccc3[nH]cc(C(=O)NCC4CCCO4)c(=O)c3c2)cc1 (configuration not stated) show? -0.567

Bench note: what fluorescence slope did COc1cccc2c(=O)c3c(cnn3C)n(C)c12 show? -0.412

Bench note: what fluorescence slope did O=C1NC(=O)C(c2ccccc2)(c2ccccc2)N1 show? -0.471

###

# tested-on: Voltage-gated potassium channel subunit beta-2 (Rattus norvegicus) (UniProt P62483)
# Sequence (P62483 whole entry, looked up): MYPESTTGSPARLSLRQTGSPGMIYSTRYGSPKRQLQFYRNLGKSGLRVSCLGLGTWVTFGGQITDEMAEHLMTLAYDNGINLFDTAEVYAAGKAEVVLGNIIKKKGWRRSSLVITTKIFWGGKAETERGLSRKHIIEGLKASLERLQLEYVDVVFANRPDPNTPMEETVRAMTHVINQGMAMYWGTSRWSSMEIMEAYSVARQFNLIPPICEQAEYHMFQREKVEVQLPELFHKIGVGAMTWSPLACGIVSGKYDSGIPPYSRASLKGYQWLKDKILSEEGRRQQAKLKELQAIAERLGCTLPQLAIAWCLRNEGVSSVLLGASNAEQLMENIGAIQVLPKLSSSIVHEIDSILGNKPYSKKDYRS
# assay-procedure: inhibitors of rat Kvbeta2 reductase activity – biochemical, NADPH fluorescence, primary screen (AID 622);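 further: slope of raw intensity against log time taken from 70 to 1610 s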
# condition-details: recombinant KvBeta, 4-cyanobenzaldehyde reduction, at 10 µM, active compounds read high
value-type: fluorescence slope
# print the numeric value only

Here are 3 compounds together with their reported answers.
[[record]]
compound = "CC(=O)c1nnn(-c2nc(N3CCCC3)nc(N(c3ccccc3)c3ccccc3)n2)c1C"
tested_on = "Voltage-gated potassium channel subunit beta-2 (Rattus norvegicus) (UniProt P62483)"
value_type = "fluorescence slope"
readout_number = -0.58

[[record]]
compound = "O=C(CN1C(=O)c2ccccc2C1=O)NCC1COc2ccccc2O1 (stereo not given)"
tested_on = "Voltage-gated potassium channel subunit beta-2 (Rattus norvegicus) (UniProt P62483)"
value_type = "fluorescence slope"
readout_number = -0.477

[[record]]
compound = "Cc1cc(NC(=O)Cn2cnc3c2c(=O)n(C)c(=O)n3C)n(-c2ccccc2)n1"
tested_on = "Voltage-gated potassium channel subunit beta-2 (Rattus norvegicus) (UniProt P62483)"
value_type = "fluorescence slope"
readout_number = -0.33


Bench note: what fluorescence slope did O=P(Cc1nnco1)(c1ccccc1)c1ccccc1 show? -0.431

Bench note: what fluorescence slope did O=C(Nc1ccc(N2CCOCC2)cc1)c1cccc(S(=O)(=O)N2CCCC2)c1 show? -0.309

Bench note: what fluorescence slope did CNC(=O)CC(C(=O)O)c1ccc(OCC(C)C)cc1 (stereo not given) show? -0.562

Bench note: what fluorescence slope did O=C1c2ccccc2-c2nc3ncnn3c(-c3ccccc3)c21 show? -0.432

Bench note: what fluorescence slope did O=C(NC1CCCCC1)C(c1ccco1)N(Cc1cccnc1)C(=O)C1COc2ccccc2O1 (stereo not given) show? -0.607

Bench note: what fluorescence slope did c1csc(-c2nc3nc4ccccc4nc3n2Cc2ccc3c(c2)OCO3)c1 show? -0.405

Bench note: what fluorescence slope did COc1cc(C(=O)Nc2ccc3c(c2)C(=O)N(CCC(=O)O)C3=O)cc(OC)c1OC show? -0.488

###

# tested-on: Voltage-gated potassium channel subunit beta-2 (Rattus norvegicus)
# assay-procedure: inhibitors of rat Kvbeta2 reductase activity – biochemical, NADPH fluorescence, primary screen (AID 622);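 further: slope of raw intensity against log time taken from 70 to 1610 s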
# condition-details: recombinant KvBeta, 4-cyanobenzaldehyde reduction, at 10 µM, active compounds read high
value-type: fluorescence slope
# print the numeric value only

[[record]]
compound = "CC1(C)CC(=O)c2cc(OCC(=O)N3CCN(c4ccccc4F)CC3)ccc2O1"
readout_number = -0.288

[[record]]
compound = "CCOC(=O)C1CCCN(Cc2nc(N)nc(Nc3ccccc3)n2)C1 (centres undefined)"
readout_number = -0.57

[[record]]
compound = "CCCn1c(=N)n(CC(=O)c2cccs2)c2ccccc21"
readout_number = -0.552

[[record]]
compound = "CCc1ccc2nc(NC(=O)CSCc3c(C)noc3C)sc2c1"
readout_number = -0.463

[[record]]
compound = "CCN1CCN(c2nc(-c3cccnc3)nc3ccccc23)CC1"
readout_number = -0.468

[[record]]
compound = "Cc1ccc(SCCNS(=O)(=O)c2ccc(F)cc2)cc1"
readout_number = -0.55


Voltage-gated potassium channel subunit beta-2 (Rattus norvegicus) / fluorescence slope / O=C(O)CCCNS(=O)(=O)c1ccc(NCc2ccccc2)c(C(=O)O)c1 : value? -0.343

Voltage-gated potassium channel subunit beta-2 (Rattus norvegicus) / fluorescence slope / CCOc1ccc(-n2c(C)nc3c(cnn3-c3ccc(Cl)cc3)c2=O)cc1 : value? -0.58

Voltage-gated potassium channel subunit beta-2 (Rattus norvegicus) / fluorescence slope / O=C(NC(NC1CCS(=O)(=O)C1)C(=O)c1cccs1)c1ccccc1 (centres undefined) : value? -0.572

Voltage-gated potassium channel subunit beta-2 (Rattus norvegicus) / fluorescence slope / CC(C)(C)OC(=O)N1CC(O)CC1C(=O)OCC(=O)c1ccc(Cl)cc1 (centres undefined) : value? -0.316

Voltage-gated potassium channel subunit beta-2 (Rattus norvegicus) / fluorescence slope / O=C(COC(=O)c1ccco1)NCc1cccs1 : value? -0.534

Voltage-gated potassium channel subunit beta-2 (Rattus norvegicus) / fluorescence slope / COc1cccc(CNC(=O)CCn2c(=O)oc3ccccc32)c1 : value? -0.551

Voltage-gated potassium channel subunit beta-2 (Rattus norvegicus) / fluorescence slope / Brc1ccc(C2=Nn3c(nnc3-c3ccncc3)SC2)cc1 : value? -0.544

Voltage-gated potassium channel subunit beta-2 (Rattus norvegicus) / fluorescence slope / CC(=O)Oc1oc(-c2ccccc2)nc1/C=N/c1ccccn1 : value? -0.383

###

# tested-on: Muscarinic acetylcholine receptor M4 (Homo sapiens)
# assay-procedure: M4-linked GIRK flux change, two-sided – cell-based, HEK293 M4/GIRK, thallium flux, BTC-AM, M4 allosteric agonist project, primary screen (AID 625);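 further: thallium influx through GIRK channels coupled to M4 in HEK293 cells with BTC-AM dye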
# condition-details: at 10 µM, actives lie on both sides
Measured fluorescence slope accompanies every entry in the list below.
# print the numeric value only

[[record]]
molecule = "Nc1nc(SCCOc2ccccc2)n[nH]1"
readout_number = 0.00618

[[record]]
molecule = "CN(C(=O)c1ccccn1)c1nnc(-c2ccncc2)s1"
readout_number = 0.00597

[[record]]
molecule = "O=C(NCc1ccco1)C1Cc2ccccc2CN1S(=O)(=O)c1ccccc1F (centres undefined)"
readout_number = 0.0061


Switching to the query record.
Bench note: what fluorescence slope did Cc1cc(C)c2nc(N)sc2c1 show? 0.00618
